biological target: human kisspeptin receptor (Homo sapiens (Human), UniProt Q969F8); test: Human KISS1R binding assay (membrane competition binding); conditions: 90 min at room temperature; competition with 0.2 nM [125I]-metastin (45-54); Flp-In T-Rex 293 kisspeptin membranes; metal complexes nonradioactive Ga, In, Lu; read-out: hKiSSR Binding Ki (90 min)
Sequence (Q969F8 whole entry): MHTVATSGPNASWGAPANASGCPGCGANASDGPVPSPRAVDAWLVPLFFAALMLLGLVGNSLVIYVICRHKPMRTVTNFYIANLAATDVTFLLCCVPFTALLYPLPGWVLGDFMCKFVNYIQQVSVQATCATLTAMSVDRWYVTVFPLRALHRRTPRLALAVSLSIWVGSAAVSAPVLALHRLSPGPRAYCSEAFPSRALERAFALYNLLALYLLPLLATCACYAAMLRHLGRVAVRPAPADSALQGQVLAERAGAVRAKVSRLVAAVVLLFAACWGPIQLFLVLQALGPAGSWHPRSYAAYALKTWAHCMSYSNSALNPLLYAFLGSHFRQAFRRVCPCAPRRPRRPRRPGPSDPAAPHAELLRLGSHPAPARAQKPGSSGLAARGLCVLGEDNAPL
Numbered stars: 1 amine (or outer) side, 2 acyl side, 3 side chain; on linkers, the order of the positions; unused ones are H or OH. Square brackets hold non-standard residues; d marks the D form. Peptide text beside a SMILES is read from it. * marks the point of attachment. DOTA = O=C(O)CN1CCN(CC(=O)O)CCN(CC(=O)*)CCN(CC(=O)O)CC1; Gly(N-(3-F-4-Me-benzyl)) = Cc1ccc(CNCC(=O)*)cc1F; Api(1-amidino) = N=C(N)N1CCC(N)(C(=O)O)CC1; d2Nal = N[C@H](Cc1ccc2ccccc2c1)C(=O)O; X1 = O=C(CN1CCC(N[*:1])CC1)[*:2]; Lauroyl = CCCCCCCCCCCC(=O)*; Api = NC1(C(=O)O)CCNCC1; Ahx = NCCCCCC(=O)O; azaGly = NNC(=O)O; Sar = CNCC(=O)O
quantityKind: Ki

Some solved cases for reference:
compound: CCCCCCCCCCCC(=O)N[C@H](Cc1ccc(O)cc1)C(=O)N[C@H](Cc1ccc2ccccc2c1)C(=O)N[C@@H](CC(N)=O)C(=O)N[C@H](C(=O)N[C@@H](Cc1ccccc1)C(=O)NNC(=O)N[C@@H](CC(C)C)C(=O)NC1(C(=O)N[C@@H](Cc2c[nH]c3ccccc23)C(N)=O)CCN(C(=O)CNC)CC1)[C@@H](C)O [Compound 400] (Lauroyl-[dY][d2Nal]NTF[azaGly]L[Api](Sar)W-NH2)
resultValue: < 10 nM

compound: CC(C)C[C@H](NC(=O)NNC(=O)[C@H](Cc1ccccc1)NC(=O)CCCCCNC(=O)CN1CCN(CC(=O)O)CCN(CC(=O)O)CCN(CC(=O)O)CC1)C(=O)NC1(C(=O)N[C@@H](Cc2c[nH]c3ccccc23)C(N)=O)CCN(C(=N)N)CC1 [Compound 5] ({DOTA-Ahx}-F[azaGly]L[Api(1-amidino)]W-NH2)
resultValue: 10 to 100 nM

Lookup: Supply Ki value. Item: Cc1ccc(CNCC(=O)N2CCC(NC(=O)[C@H](CC(C)C)NC(=O)NNC(=O)[C@H](Cc3ccccc3)NC(=O)[C@@H](NC(=O)[C@H](CC(N)=O)NC(=O)CN3CCC(NC(=O)CN4CCN(CC(=O)O)CCN(CC(=O)O)CCN(CC(=O)O)CC4)CC3)[C@@H](C)O)(C(=O)N[C@@H](Cc3c[nH]c4ccccc34)C(N)=O)CC2)cc1F [Compound 158] ({DOTA}-[X1]NTF[azaGly]L[Api](Gly(N-(3-F-4-Me-benzyl)))W-NH2)
Found: < 10 nM
